Record: compiled pIC50 on UniProtKB Q2M2I8 from multiple reports.
Bear in mind: pIC50 is minus log10 of a mol/L concentration; give just that figure.

[ask] // returns reported pIC50 for input CC(C)C[C@](C)(N)COc1ccc(-c2ccnc3ccc(F)cc23)cc1C(F)F
[reply] 9.03

[ask] Now consider N[C@H]1CC[C@H](Nc2cc(Nc3ccccc3)c3ncc(-c4ccsc4)n3n2)CC1 and answer again.
[reply] 8.00

[ask] Another: CC(C)C[C@](C)(N)COc1ccc2c(c1)COc1cnc(NCC(F)(F)F)cc1-2
[reply] 7.25

[ask] Likewise for COC(=O)Nc1nccc(-c2cnc(OC[C@](C)(N)CC(C)C)c(C)c2)n1 ?
[reply] 6.63

[ask] Repeat for the following compound: Cc1cc(-c2cc(C)c(OC[C@@](C)(N)CC(C)C)c(C)n2)ccn1
[reply] 5.99

[ask] Would you mind doing CC(C)C[C@](C)(N)COc1ccc(-c2cc(N)ncn2)cc1Cl as well?
[reply] 8.96

[ask] Lookup COC(=O)Nc1nccc(-c2ccc(OC[C@@](C)(N)CC(C)C)c(CF)n2)n1
[reply] 8.33

[ask] Now this one: CC(C)C[C@](C)(N)COc1cnc(-c2ccnc3ccc(OC(F)(F)F)cc23)cc1C(F)F
[reply] 8.36
